Value source: ChEMBL document CHEMBL5316320

For each record, write down the corresponding pIC50.
// pIC50 is dimensionless: -log10 of concentration (M)

Under Mitogen-activated protein kinase 8 (Homo sapiens, UniProt P45983): pIC50 value of `O=C(c1ccc(CNc2n[nH]c3ccccc23)cc1)N1CCN(C(=O)c2cccc(C(F)(F)F)c2)CC1` ? 5.11

Under Mitogen-activated protein kinase 8 (Homo sapiens, UniProt P45983): pIC50 value of `O=C(c1ccc(CNc2n[nH]c3ccccc23)cc1)N1CCN(C(=O)c2ccccc2I)CC1` ? 5.11

---

Target: Dual specificity mitogen-activated protein kinase kinase 7 (Homo sapiens)
Sequence (O14733 whole entry): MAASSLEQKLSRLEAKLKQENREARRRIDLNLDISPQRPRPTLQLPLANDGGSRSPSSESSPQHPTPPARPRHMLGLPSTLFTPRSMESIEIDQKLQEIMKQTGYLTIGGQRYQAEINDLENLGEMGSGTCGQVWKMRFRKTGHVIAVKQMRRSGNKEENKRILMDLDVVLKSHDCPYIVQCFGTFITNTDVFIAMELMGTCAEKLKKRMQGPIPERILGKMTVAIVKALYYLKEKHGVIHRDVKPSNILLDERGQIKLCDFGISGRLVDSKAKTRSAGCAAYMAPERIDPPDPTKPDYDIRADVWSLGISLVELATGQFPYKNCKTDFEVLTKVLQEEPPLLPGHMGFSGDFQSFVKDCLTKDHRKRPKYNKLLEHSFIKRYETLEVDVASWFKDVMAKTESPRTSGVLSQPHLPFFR
Test: Inhibition of MKK7 (unknown origin) by kinase profiling assay
pIC50: −log10 of the molar value.
READOUT TYPE: pIC50

Which pIC50 is reported for this compound? `O=C(c1cccc(CNc2n[nH]c3cccc(Cl)c23)c1)N1CCN(C(=O)c2ccc(Cl)cc2Cl)CC1` < 5.00
